Values compiled from BindingDB's records for PubMed 11082453.

# Target entity: Prostaglandin G/H synthase 1 (Rattus norvegicus)
# Sequence (Q63921 whole entry): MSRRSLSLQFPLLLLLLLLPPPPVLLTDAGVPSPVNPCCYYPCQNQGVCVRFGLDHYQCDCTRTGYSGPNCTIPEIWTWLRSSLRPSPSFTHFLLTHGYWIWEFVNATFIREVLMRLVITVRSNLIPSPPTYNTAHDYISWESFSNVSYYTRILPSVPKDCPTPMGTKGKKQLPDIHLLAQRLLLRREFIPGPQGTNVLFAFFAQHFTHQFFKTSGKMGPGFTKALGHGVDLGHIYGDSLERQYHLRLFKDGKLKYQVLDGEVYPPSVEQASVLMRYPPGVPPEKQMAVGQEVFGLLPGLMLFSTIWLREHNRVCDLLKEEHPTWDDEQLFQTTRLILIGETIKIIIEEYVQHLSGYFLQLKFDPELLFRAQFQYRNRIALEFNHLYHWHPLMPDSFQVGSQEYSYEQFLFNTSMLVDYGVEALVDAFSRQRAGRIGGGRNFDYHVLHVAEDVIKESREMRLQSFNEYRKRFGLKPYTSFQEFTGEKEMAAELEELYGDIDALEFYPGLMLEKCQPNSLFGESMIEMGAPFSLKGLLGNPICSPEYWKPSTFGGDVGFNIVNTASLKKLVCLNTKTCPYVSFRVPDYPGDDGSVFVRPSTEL
Observed property: Ki

Give recorded Ki. Nc1ncnc2nc(-c3ccc(N4CCOCC4)nc3)cc(-c3cccc(Br)c3)c12 > 10 µM
